- Test system: MCF7 breast
- Assay procedure: NCI-60 one-dose screen, 48 h
- Condition details: 10 µM unless noted
The panel holds about 83,000 compounds, 20% with a hit somewhere; the sample as a whole holds those more often. The source made the active and inactive calls. Rule for the calls: active = growth percent below 10; inactive = the rest.
Please answer using one outcome listed in TRUE = active, FALSE = inactive

[[record]]
molecule = "COc1cccc(/C=C2\\COc3ccc(-c4ccccc4)cc3C2=O)c1"
group_label = "TRUE"

[[record]]
molecule = "COc1cc(/C=C2\\C(=O)N(Cc3ccc(Cl)cc3)c3ccccc32)cc(OC)c1OC"
group_label = "TRUE"


Entry C(=C\c1n(Cc2ccc3ccccc3c2)c(-c2ccccc2)c(-c2ccccc2)[n+]1Cc1ccc2ccccc2c1)/c1ccccc1 : call = ?
TRUE

Entry CC(C)(C)CC(C)(C)Nc1c(-c2ccc3c(c2)OCO3)nc2cnccn12 : call = ?
FALSE

Entry COc1cc(C2CC(c3cccc(Nc4ccncc4)c3)=NN2c2cc(Cl)cc(Cl)c2)cc(OC)c1OC (stereo not given) : call = ?
TRUE

====

- Tested on: UACC-257 melanoma
- Assay procedure: NCI-60 one-dose screen, 48 h (100 = growth as untreated, 0 = no growth, -100 = all killed)
- Condition details: 10 µM unless noted
- Protocol: Cells are grown in 96 well plates and exposed to the test compound for 48 hours. Compounds are tested at a single concentration, which is 10^-5 M for most compounds. The reported endpoint is percent growth (GI% or GIPRCNT), where numbers from 0 - 100% represent growth inhibition, and numbers from -100% - 0 represent cell death. For example, a value of 40 represents 60% growth inhibition. A value of 0 means no net growth occurred over the course of the experiment. […]
About 83,000 compounds went through this panel and 20% of them were active in at least one assay; those are over-represented in the sample as a whole.
Measured endpoint: growth (%)
Respond with the bare value in %.

Field: example entries. Status: answers known.
[[record]]
molecule = "c1ccc(-c2nnc(Nc3ccc4c(c3)OCCO4)o2)c(NCc2ccncc2)c1"
measured_endpoint = "growth"
recorded_measurement = 68.3

[[record]]
molecule = "CC(C)[N+](C)(CCOC(COc1ccccc1)COc1ccccc1)C(C)C"
measured_endpoint = "growth"
recorded_measurement = 78.7

[[record]]
molecule = "Cc1ccc(C(c2c(O)c3cc(Br)ccc3[nH]c2=O)c2c(O)c3cc(Br)ccc3[nH]c2=O)cc1"
measured_endpoint = "growth"
recorded_measurement = 98.3

[[record]]
molecule = "COc1cc2nc(-c3ccc(C(F)(F)F)cc3)cc(OCCN3CCCC3)c2cc1OC"
measured_endpoint = "growth"
recorded_measurement = 68.9

[[record]]
molecule = "CCOC(=O)c1cnc2c(cnn2CC)c1NN=C(C)C"
measured_endpoint = "growth"
recorded_measurement = 113


Kindly note the recorded growth for COc1cc(CCNc2nc3cc(N)cc(N)c3nc2-c2ccccc2)cc(OC)c1 , which is 88.9

Kindly note the recorded growth for COc1cc(C2NC(c3cc(OC)c(OC)c(OC)c3)C(C#N)(C#N)C2(C#N)C#N)cc(OC)c1OC (stereo unspecified) , which is 106

Kindly note the recorded growth for [O-][n+]1ccccc1CCN(O)CCc1cccc[n+]1[O-] , which is 106

Kindly note the recorded growth for Fc1ccccc1CSc1ncnc2nc[nH]c12 , which is 61.3

Kindly note the recorded growth for CC(C)(C)CC(C)(C)Nc1c(-c2ccc3c(c2)OCO3)nc2cnccn12 , which is 101

Kindly note the recorded growth for Cc1nc2sc(C(=O)Nc3ccccc3)c(N)c2cc1C(=O)c1ccc(C(F)(F)F)cc1 , which is 101
